Test system: human PKK mRNA
Experiment: Antisense inhibition of human PKK mRNA in HepaRG cells, 1,000 nM, MOE/deoxy/cEt oligonucleotides (Example 3)
Type: cell-based
Conditions: Table 20; HepaRG cells, electroporation with 1,000 nM antisense oligonucleotide, approximately 24 hours; PKK mRNA by RT-PCR (RTS3454), relative to untreated control cells
Strand notation (5' to 3'): a small letter for the sugar, then the base; units joined by * are phosphorothioate-linked, units joined directly phosphodiester-linked; [ ] holds rarer units or linkages, { } end groups; capitals alone tell only the bases. e = 2'-O-(2-methoxyethyl) (MOE); k = constrained ethyl (cEt); [5mC] = 5-methylcytosine; d = 2'-deoxy (DNA)
# key: entry, value: % inhibition
The reply must contain the numeric value and, after it, the unit.

// recorded % inhibition for 547914 (eG*eG*k[5mC]*dA*dA*d[5mC]*dA*dT*d[5mC]*d[5mC]*dA*d[5mC]*dA*kT*k[5mC]*eT; antisense) [compound 547914] : 74%

More entries:
Given item 547868 (antisense eA*e[5mC]*k[5mC]*dT*dT*dA*dG*dA*d[5mC]*dA*d[5mC]*dA*dT*kT*kA*eA) [compound 547868] , the value recorded as its % inhibition is 47%

Measured % inhibition, 547859 (antisense e[5mC]*e[5mC]*kT*d[5mC]*dT*d[5mC]*dA*dT*dA*dT*d[5mC]*dA*dA*k[5mC]*kT*e[5mC]) [compound 547859] : 77%

* * *

System: human PKK mRNA
Assay: Antisense inhibition of human PKK mRNA in HepaRG cells, 1,000 nM, MOE/deoxy/cEt oligonucleotides (Example 3)
Format: cell-based
Conditions: Table 21 experiment; HepaRG cells, electroporation with 1,000 nM antisense oligonucleotide, approx. 24 hours; PKK mRNA by RT-PCR (RTS3454), relative to untreated control cells
Strand notation (5' to 3'): a small letter for the sugar, then the base; units joined by * are phosphorothioate-linked, units joined directly phosphodiester-linked; [ ] holds rarer units or linkages, { } end groups; capitals alone tell only the bases. e = 2'-O-(2-methoxyethyl) (MOE); k = constrained ethyl (cEt); [5mC] = 5-methylcytosine; d = 2'-deoxy (DNA)
The entries below come with measured % inhibition values attached.
Report the figure in % without appending any unit label.

These recorded examples may help you get a feel for the data.
Lab note: 547834 (eA*eA*kA*d[5mC]*dT*dG*d[5mC]*dA*d[5mC]*d[5mC]*dT*dG*dT*kT*k[5mC]*eG; antisense) [compound 547834] gave % inhibition of 63

Value of % inhibition reported for the substance 547781 (antisense e[5mC]*eA*kA*dT*dT*dG*d[5mC]*dT*dT*d[5mC]*dT*dT*dG*kG*kA*eG) [compound 547781] is 49

Further cases:
Given item 547812 (eG*eT*kG*d[5mC]*dA*d[5mC]*d[5mC]*dT*d[5mC]*dA*dT*d[5mC]*dT*kG*kG*e[5mC]; antisense) [compound 547812] , the value recorded as its % inhibition is 51

547824 (e[5mC]*eG*kA*dT*dG*dT*dA*d[5mC]*dT*dT*dT*dT*dG*kG*k[5mC]*eA; antisense) [compound 547824] yielded % inhibition of 82

Note to self: % inhibition recorded for 547792 (antisense eT*e[5mC]*k[5mC]*dA*d[5mC]*dA*dG*dG*dA*dA*dA*d[5mC]*dT*kG*kT*eA) [compound 547792] was 31

For 547747 (eT*e[5mC]*kA*d[5mC]*dT*dG*dT*dA*d[5mC]*dT*dA*dG*dT*kT*kT*e[5mC]) [compound 547747] the substance record lists % inhibition as 88

* * *

Test system: human PKK mRNA
Test: Antisense inhibition of human PKK mRNA in HepaRG cells, 1,000 nM, MOE/deoxy/cEt oligonucleotides (Example 3)
Type: cell-based
Details: Table 19; HepaRG cells, electroporation with 1,000 nM antisense oligonucleotide, approximately 24 hours; PKK mRNA by RT-PCR (RTS3454), relative to untreated control cells
Strand notation (5' to 3'): a small letter for the sugar, then the base; units joined by * are phosphorothioate-linked, units joined directly phosphodiester-linked; [ ] holds rarer units or linkages, { } end groups; capitals alone tell only the bases. e = 2'-O-(2-methoxyethyl) (MOE); k = constrained ethyl (cEt); [5mC] = 5-methylcytosine; d = 2'-deoxy (DNA)
Recorded % inhibition determines the group label, using low interval: < 40%; middle interval: ≥ 40% and < 60%; high interval: ≥ 60%

Completed entries (count: 5):
Req: Which band does 547747 (eT*e[5mC]*kA*d[5mC]*dT*dG*dT*dA*d[5mC]*dT*dA*dG*dT*kT*kT*e[5mC]) [compound 547747] fall in?
Resp: high interval

Req: Textbook exercise: identify the category of the substance given here, 548076 (e[5mC]*eA*k[5mC]*d[5mC]*dT*dT*dT*d[5mC]*dT*d[5mC]*d[5mC]*dT*dT*k[5mC]*kG*eA; antisense) [compound 548076] , according to its measured value.
Resp: low interval

Req: Bin? 548130 (eA*eT*kT*dT*dG*dA*d[5mC]*dT*dT*dG*dA*dA*d[5mC]*kT*k[5mC]*eA; antisense) [compound 548130]
Resp: low interval

Req: Using the reported % inhibition, which band applies to 548148 (eG*e[5mC]*kA*dG*d[5mC]*dT*d[5mC]*dT*dG*dA*dG*dT*dG*k[5mC]*kA*e[5mC]; antisense) [compound 548148] ?
Resp: high interval

Req: Place this substance in its band: 548128 (eA*eT*kT*dG*d[5mC]*d[5mC]*dT*dA*dG*dA*d[5mC]*dT*d[5mC]*kT*kG*eG; antisense) [compound 548128]
Resp: middle interval

New cases:
Req: Could you tell me which band 548124 (antisense eT*eA*kG*dA*d[5mC]*dT*d[5mC]*dT*dG*dG*dA*d[5mC]*dT*kG*k[5mC]*eT) [compound 548124] belongs to?
Resp: middle interval

Req: State the band of 548110 (antisense eT*eG*k[5mC]*dA*dT*d[5mC]*dT*dG*dA*dG*d[5mC]*dT*dT*kT*kT*e[5mC]) [compound 548110]
Resp: high interval

* * *

System: human PKK mRNA
Test: Antisense inhibition of human PKK mRNA in HepaRG cells, 1,000 nM, MOE/deoxy/cEt oligonucleotides (Example 3)
Format: cell-based
Conditions: HepaRG cells, electroporation with 1,000 nM antisense oligonucleotide, approx. 24 hours, PKK mRNA by RT-PCR (RTS3454), relative to untreated control cells; Table 26 experiment
Strand notation (5' to 3'): a small letter for the sugar, then the base; units joined by * are phosphorothioate-linked, units joined directly phosphodiester-linked; [ ] holds rarer units or linkages, { } end groups; capitals alone tell only the bases. e = 2'-O-(2-methoxyethyl) (MOE); k = constrained ethyl (cEt); [5mC] = 5-methylcytosine; d = 2'-deoxy (DNA)
Listing of entries alongside the reported % inhibition.
Kindly answer with a numeric value in %, unit omitted.

Data point: 548231 (eA*eA*kT*dA*d[5mC]*dT*d[5mC]*dA*dT*dT*dG*dT*dT*kG*kT*eG; antisense) [compound 548231] ; % inhibition = 11

Record 548256 (antisense eG*e[5mC]*kT*d[5mC]*d[5mC]*d[5mC]*d[5mC]*dA*dT*dG*d[5mC]*dA*dT*kA*k[5mC]*eT) [compound 548256] , field % inhibition: 25

The substance identified as 548273 (antisense eA*eA*kT*d[5mC]*dT*d[5mC]*d[5mC]*dA*d[5mC]*d[5mC]*d[5mC]*d[5mC]*d[5mC]*kG*kA*eA) [compound 548273] registered its % inhibition at 5

***
Lab note: 548242 (eG*e[5mC]*kA*dT*dA*d[5mC]*dT*d[5mC]*dG*d[5mC]*d[5mC]*dT*dT*kT*kG*eT; antisense) [compound 548242] gave % inhibition of 25

So, 548236 (eT*eA*k[5mC]*dA*dT*d[5mC]*dT*dA*dG*dA*dT*dG*dA*k[5mC]*k[5mC]*eT; antisense) [compound 548236] ? Its % inhibition was 37

According to the records, this substance 548253 (antisense eT*eA*k[5mC]*dT*d[5mC]*dG*d[5mC]*d[5mC]*dT*dT*dT*dG*dT*kG*kA*eT) [compound 548253] displays % inhibition of 8

* * *

Test system: human PKK mRNA
Assay: Dose-dependent antisense inhibition of human PKK in HepaRG cells, 0.12-10.00 uM (Example 4)
Format: cell-based
Conditions: Table 32, 10.00 μM, electroporation, ~16 h
Strand notation (5' to 3'): a small letter for the sugar, then the base; units joined by * are phosphorothioate-linked, units joined directly phosphodiester-linked; [ ] holds rarer units or linkages, { } end groups; capitals alone tell only the bases. e = 2'-O-(2-methoxyethyl) (MOE); [5mC] = 5-methylcytosine; d = 2'-deoxy (DNA)
recorded-metric: percent inhibition of PKK at 10.00 μM

Worked cases, percent inhibition of PKK at 10.00 μM given:
// percent inhibition of PKK at 10.00 μM lookup, substance = 531002 (eG*eA*eG*e[5mC]*eT*d[5mC]*d[5mC]*d[5mC]*dT*dT*dG*dT*dG*dT*d[5mC]*e[5mC]*e[5mC]*eA*eT*eA; antisense) [compound 531002] , result: 86%

So, 531004 (eA*eG*eA*eG*eT*dA*dA*d[5mC]*d[5mC]*dA*dG*dA*dG*d[5mC]*dT*e[5mC]*e[5mC]*e[5mC]*eT*eT; antisense) [compound 531004] ? Its percent inhibition of PKK at 10.00 μM was 84%

Continuing:
# substance 531022 (eG*eT*eA*eA*eT*dG*dT*d[5mC]*dT*dG*dA*d[5mC]*dA*dG*dA*eT*eT*eT*eA*eA; antisense) [compound 531022] ; its percent inhibition of PKK at 10.00 μM = 77%

Measured percent inhibition of PKK at 10.00 μM of 530971 (antisense eG*eG*eA*eA*e[5mC]*dT*dT*dG*dG*dT*dG*dT*dG*d[5mC]*d[5mC]*eA*e[5mC]*eT*eT*eT) [compound 530971] : 70%

GET /value?item= 530992 (eG*eT*e[5mC]*eA*e[5mC]*dA*dT*dT*d[5mC]*dA*dA*dT*dT*d[5mC]*dT*eT*e[5mC]*eT*e[5mC]*e[5mC]; antisense) [compound 530992] &field=percent inhibition of PKK at 10.00 μM returns 80%
